target: T1, GLP-1 receptor (RINm5F cell membranes) (UniProt P32301 22-463, limits assumed)
T1 construct: whole, on cells; The receptor source is homogenized cell membranes, not intact cells
T1 sequence (looked up): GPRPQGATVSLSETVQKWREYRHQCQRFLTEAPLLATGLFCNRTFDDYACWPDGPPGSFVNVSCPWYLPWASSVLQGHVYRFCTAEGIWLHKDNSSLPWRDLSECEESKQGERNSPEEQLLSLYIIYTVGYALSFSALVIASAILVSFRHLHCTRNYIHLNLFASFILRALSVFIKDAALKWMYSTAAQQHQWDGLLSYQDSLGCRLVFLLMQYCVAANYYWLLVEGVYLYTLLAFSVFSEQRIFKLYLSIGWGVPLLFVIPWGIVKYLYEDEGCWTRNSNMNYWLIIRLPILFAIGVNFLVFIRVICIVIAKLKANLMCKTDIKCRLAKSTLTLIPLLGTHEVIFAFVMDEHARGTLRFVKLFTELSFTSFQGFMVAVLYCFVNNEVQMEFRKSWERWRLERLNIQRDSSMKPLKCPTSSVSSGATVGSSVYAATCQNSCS
experimental_details: displacement of [125I]GLP-1 from RINm5F cell membranes, filtration and scintillation counting
result_type: pIC50
Conceptually, pIC50 converts a concentration in mol/L into minus its log10.

Any idea what pIC50 was measured for EGTFTSDVSSYLEGQAAKEFIAWLVKGR (peptide, UniProt P01275 100-127, looked up, range 100-127; Test compound in the displacement assay) [GLP-1 (9-36)] ?
7.19
